- assay_system: T1, hVEGF-A (8-109) (human, UniProt P15692 214-315)
- T1 construct: residue numbers count on mature VEGF-A; dimer
- T1 sequence (looked up): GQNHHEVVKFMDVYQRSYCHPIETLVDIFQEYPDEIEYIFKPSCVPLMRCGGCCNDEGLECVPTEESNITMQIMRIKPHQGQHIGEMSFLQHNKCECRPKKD
- assay_protocol: spot phage ELISA
Kindly return true if reported ELISA is no lower than 1; return false if it is lower.

Is the recorded value of ELISA equal to or greater than 1 for this binder? GCKLFEPLWGCKQDSDCLAGCVCRWYESCG (designed binder) [VEGF_CKP9.96]
true

Is the recorded value of ELISA equal to or greater than 1 for this binder? GCNIMLPFWGCGWDQFCLAGCVCQYYQSCG (designed binder) [VEGF_CKP9.54.51]
true

Is the recorded value of ELISA equal to or greater than 1 for this binder? GCNIMLPFWGCQADYACLAGCVCQYYQSCG (designed binder) [VEGF_CKP9.54.14]
true

Is the recorded value of ELISA equal to or greater than 1 for this binder? GCWDPTFNWALYCKQDSDCLAGCVCQMYDSCG (designed binder) [VEGF_CKP7.24]
false

Is the recorded value of ELISA equal to or greater than 1 for this binder? GCNIMLPFWGCSGDFACLAGCVCQYYQSCG (designed binder) [VEGF_CKP9.54.64]
true

Is the recorded value of ELISA equal to or greater than 1 for this binder? GCQDPTLNWATYCKQDSDCLAGCVCQMYQSCG (designed binder) [VEGF_CKP7.43]
false

Is the recorded value of ELISA equal to or greater than 1 for this binder? GCQDPSLNWADYCKQDSDCLAGCVCQMHQSCG (designed binder) [VEGF_CKP7.50]
false

Is the recorded value of ELISA equal to or greater than 1 for this binder? GCNIMLPFWGCGPDLQCLAGCVCQYYQSCG (designed binder) [VEGF_CKP9.54.59]
true

Is the recorded value of ELISA equal to or greater than 1 for this binder? GCNIMLPFWGCNRDFLCLAGCVCQYYQSCG (designed binder) [VEGF_CKP9.54.48]
true

Is the recorded value of ELISA equal to or greater than 1 for this binder? GCLDPTVNWALFCKQDSDCLAGCVCQHYKTCG (designed binder) [VEGF_CKP7.81]
true

Is the recorded value of ELISA equal to or greater than 1 for this binder? GCNIMLPFWGCGWSMDCLAGCVCQYYQSCG (designed binder) [VEGF_CKP9.54.76]
true

Is the recorded value of ELISA equal to or greater than 1 for this binder? GCNPMLPFWGCKQDSDCLAGCVCHWYQSCG (designed binder) [VEGF_CKP9.L1.57]
true

Is the recorded value of ELISA equal to or greater than 1 for this binder? GCQRTQPFWGCKQDSDCLAGCVCRWYQSCG (designed binder) [VEGF_CKP9.22]
true

Is the recorded value of ELISA equal to or greater than 1 for this binder? GCLDPSFDWALYCKQDSDCLAGCVCQLYNSCG (designed binder) [LRP6_CKP7.89]
false

Is the recorded value of ELISA equal to or greater than 1 for this binder? GCDLMQPLWGCKQDSDCLAGCVCHWYQSCG (designed binder) [VEGF_CKP9.L1.76]
true

Is the recorded value of ELISA equal to or greater than 1 for this binder? GCQDPTFNWALYCKQDSDCLAGCVCQMYQSCG (designed binder) [VEGF_CKP7]
true

Is the recorded value of ELISA equal to or greater than 1 for this binder? GCGETVFEQFLWCKQDSDCLAGCVCGPNGFCG (designed binder) [VEGF_CKP2]
true

Is the recorded value of ELISA equal to or greater than 1 for this binder? GCRTPWEPHDITCKQDSDCLAGCVCGPNGFCG (designed binder) [VEGF_CKP11]
true

Is the recorded value of ELISA equal to or greater than 1 for this binder? GCQDPTFNWAEYCKQDSDCLAGCVCQMYQSCG (designed binder) [VEGF_CKP7.35]
false

Is the recorded value of ELISA equal to or greater than 1 for this binder? GCQLMQPFWGCKQDSDCLAGCVCRWYNSCG (designed binder) [VEGF_CKP9.L5.7]
true

Is the recorded value of ELISA equal to or greater than 1 for this binder? GCPAIQNWKEHPCKQDSDCLAGCVCSWWPSLCG (designed binder) [VEGF_CKP5]
true

Is the recorded value of ELISA equal to or greater than 1 for this binder? GCRLLEPSWGCKQDSDCLAGCVCQWYQSCG (designed binder) [VEGF_CKP9.72]
false

Is the recorded value of ELISA equal to or greater than 1 for this binder? GCDDPSFDWSVYCKQDSDCLAGCVCRMYDSCG (designed binder) [VEGF_CKP7.2]
true
